# method: Volume of distribution in rat plasma
# Format: ADME, organism-based
measured property: Vd
Answers without a unit are incomplete; give the number and then its unit.

Vd lookup needed for Nc1ccc(-c2ccccc2)cc1NC(=O)c1ccc(CN2CCC3(CCCN3)CC2)cc1 , thanks.
22 L/kg

###

# method: Bioavailability in rat plasma
# Assay type: ADME, organism-based
measured property: bioavailability (%)
Give the value in % but do not write % after it.

Given the molecule Nc1ccc(-c2ccccc2)cc1NC(=O)c1ccc(CN2CCC3(CCCN3)CC2)cc1 , what is its reported bioavailability?
70

###

# method: Half life in dog at 0.5 mg/kg, iv
# Type: ADME, organism-based, Canis lupus familiaris
# Parameters: dose 0.5 mg/kg, route intravenous
# condition set: in vivo
measured property: half-life (h)
# value in h; strip the unit string

Item under review: Nc1ccc(-c2ccccc2)cc1NC(=O)c1ccc(C(=O)N2CCC3(CCCN3)CC2)cc1 . Reported half-life?
8.5

###

# tested on: Histone deacetylase 1 (Homo sapiens)
# Sequence (Q13547 whole entry): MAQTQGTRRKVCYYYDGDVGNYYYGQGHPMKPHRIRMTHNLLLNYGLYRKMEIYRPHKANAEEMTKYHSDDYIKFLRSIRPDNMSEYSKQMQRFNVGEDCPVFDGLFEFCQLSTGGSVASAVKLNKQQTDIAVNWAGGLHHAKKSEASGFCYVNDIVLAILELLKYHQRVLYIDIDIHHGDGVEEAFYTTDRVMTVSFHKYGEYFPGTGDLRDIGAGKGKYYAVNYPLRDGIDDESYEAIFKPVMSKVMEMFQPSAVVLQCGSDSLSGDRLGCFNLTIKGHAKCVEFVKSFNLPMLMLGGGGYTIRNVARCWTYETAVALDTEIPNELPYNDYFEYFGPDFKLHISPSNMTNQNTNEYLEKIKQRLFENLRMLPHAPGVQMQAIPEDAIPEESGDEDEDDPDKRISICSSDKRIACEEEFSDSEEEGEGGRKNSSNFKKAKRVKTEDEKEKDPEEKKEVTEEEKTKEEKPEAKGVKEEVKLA
# method: Inhibition of C-terminal FLAG-tagged human HDAC1 overexpressed in mammalian cells by plate reader method
# Assay type: cell-based
Give measured pIC50 for each item. Keep answers brief.
Please report pIC50 as the negative decimal logarithm of the molar concentration, giving only the number.

Look at this compound and give its reported pIC50. Nc1ccc(-c2cccs2)cc1NC(=O)c1ccc(C(=O)N2CCC3(CCCN3)CC2)cc1
7.96

Reported pIC50 for Nc1ccc(-c2ccccc2)cc1NC(=O)c1ccc(CN2CCC3(CCCN3)CC2)cc1 : what is it?
8.10

Give the measured pIC50 of O=C(Nc1cc(Br)ccc1O)c1ccc(CNc2ccncc2)cc1 .
5.28

pIC50 for COc1cccc(CNCc2ccc(C(=O)NO)cc2)c1 ?
6.32

Reported pIC50, compound O=C(NO)c1ccc(CNCc2cccc(Cl)c2)cc1 : ____
6.46

Returns the measured pIC50 for the input compound. Input: Nc1ccc(-c2ccc(F)cc2)cc1NC(=O)c1ccc(CN2CCC3(CCNC3)CC2)cc1
7.89

Quick one: pIC50 for CC(NCc1ccc(C(=O)Nc2cc(-c3ccccc3)ccc2O)cc1)c1ccncc1 (stereo not drawn) ?
7.89

For the compound O=C(NO)c1ccc(CNC2CCCCC2)cc1 , what pIC50 is on record?
4.62

Recorded pIC50 of Nc1ccc(-c2ccccc2)cc1NC(=O)c1ccc(C(=O)N2CCC3(CCCN3)CC2)cc1 , please.
8.10

I have this compound here, O=C(Nc1cc(Cl)ccc1O)c1ccc(CNc2ccncc2)cc1 , and I need its recorded pIC50.
5.30

What pIC50 value was documented for this compound, O=C(Nc1cc(F)ccc1O)c1ccc(CNc2ccncc2)cc1 ?
5.70

Item O=C(NO)c1ccc(CNc2ccc(Cl)cc2)cc1 has what recorded pIC50?
5.79

Need pIC50, item O=C(Nc1ccccc1O)c1ccc(CNc2ccncc2)cc1
5.80

So what does the record say about pIC50 for COc1ccc(O)c(NC(=O)c2ccc(CNc3ccncc3)cc2)c1 ?
5.10

Recorded pIC50 of Nc1ccc(-c2ccccc2)cc1NC(=O)c1ccc(CN2CCC3(CCNC3)CC2)cc1 , please.
7.48

Tell me the measured pIC50 of Nc1ccc(-c2ccccc2F)cc1NC(=O)c1ccc(CN2CCC3(CCCN3)CC2)cc1 , please.
7.80

State the recorded pIC50 for this entry: Nc1ccc(-c2cccc(F)c2)cc1NC(=O)c1ccc(CN2CCC3(CCCN3)CC2)cc1
7.33

Entry Cc1ccc(O)c(NC(=O)c2ccc(CNc3ccncc3)cc2)c1 has what pIC50?
4.69

What value of pIC50 has been recorded for this entry: Nc1ccc(-c2cccs2)cc1NC(=O)c1ccc(CN2CCC3(CCCN3)CC2)cc1
8.40

Quick check: pIC50 of O=C(NO)c1ccc(CNCCc2cccc(Cl)c2)cc1 ?
6.00

Dear colleague, I am looking for the recorded pIC50 of the following compound: Nc1ccc(-c2ccsc2)cc1NC(=O)c1ccc(CN2CCC3(CCCN3)CC2)cc1
8.10

Any idea what pIC50 was measured for Nc1ccc(-c2ccc(F)cc2)cc1NC(=O)c1ccc(C(=O)N2CCC3(CCCN3)CC2)cc1 ?
7.92

What pIC50 value was documented for this compound, Nc1ccc(-c2ccccc2F)cc1NC(=O)c1ccc(C(=O)N2CCC3(CCCN3)CC2)cc1 ?
7.96

###

# method: Volume of distribution at steady state in dog at 0.5 mg/kg, iv
# Format: ADME, organism-based, Canis lupus familiaris
# Set-up: dose 0.5 mg/kg, route intravenous
# condition set: in vivo, read-out: Vdss
measured property: Vd (L/kg)
Return type: number; implicit unit L/kg.

Query (molecule): Nc1ccc(-c2ccccc2)cc1NC(=O)c1ccc(C(=O)N2CCC3(CCCN3)CC2)cc1 ; field requested: Vd
5.1

###

# method: Clearance in dog at 0.5 mg/kg, iv
# Type: ADME, organism-based, Canis lupus familiaris
# Parameters: dose 0.5 mg/kg, route intravenous
# condition set: in vivo
measured property: clearance (mL/min/kg)
# value in mL/min/kg; strip the unit string

// lookup clearance for Nc1ccc(-c2ccccc2)cc1NC(=O)c1ccc(C(=O)N2CCC3(CCCN3)CC2)cc1
8.2

###

# method: Volume of distribution at steady state in rat at 2 mg/kg, iv
# Type: ADME, organism-based
# Parameters: dose 2 mg/kg, route intravenous
# condition set: in vivo, read-out: Vdss
measured property: Vd (L/kg)
Kindly answer with a numeric value in L/kg, unit omitted.

Look up Vd for this compound: Nc1ccc(-c2ccccc2)cc1NC(=O)c1ccc(C(=O)N2CCC3(CCCN3)CC2)cc1
14

###

# method: Clearance in rat at 2 mg/kg, iv
# Format: ADME, organism-based
# Parameters: dose 2 mg/kg, route intravenous
# condition set: in vivo
measured property: clearance (mL/min/kg)
Numeric only. Scale: mL/min/kg

Fill in the blank: the reported clearance of Nc1ccc(-c2ccccc2)cc1NC(=O)c1ccc(C(=O)N2CCC3(CCCN3)CC2)cc1 is ____.
26

###

# method: Clearance in rat plasma
# Format: ADME, organism-based
measured property: clearance
# include the unit after the value

Returns the measured clearance for the input compound. Input: Nc1ccc(-c2ccccc2)cc1NC(=O)c1ccc(CN2CCC3(CCCN3)CC2)cc1
45 mL/min/kg

###

// each record: one item and its pIC50 for Voltage-gated inwardly rectifying potassium channel KCNH2 (Homo sapiens)
// pIC50: -log10(molar conc.)

What value of pIC50 on Voltage-gated inwardly rectifying potassium channel KCNH2 (Homo sapiens) does Nc1ccc(-c2ccccc2F)cc1NC(=O)c1ccc(CN2CCC3(CCCN3)CC2)cc1 have?
6.74

For Voltage-gated inwardly rectifying potassium channel KCNH2 (Homo sapiens), provide pIC50 of Nc1ccc(-c2ccc(F)cc2)cc1NC(=O)c1ccc(CN2CCC3(CCNC3)CC2)cc1 please.
6.63

Voltage-gated inwardly rectifying potassium channel KCNH2 (Homo sapiens) / pIC50 / Nc1ccc(-c2cccs2)cc1NC(=O)c1ccc(C(=O)N2CCC3(CCCN3)CC2)cc1 : value?
4.60

Requested read-out pIC50, target or system Voltage-gated inwardly rectifying potassium channel KCNH2 (Homo sapiens), entry Nc1ccc(-c2ccccc2)cc1NC(=O)c1ccc(C(=O)N2CCC3(CCCN3)CC2)cc1
4.91

Checklist item: pIC50 tested on Voltage-gated inwardly rectifying potassium channel KCNH2 (Homo sapiens), entry Nc1ccc(-c2cccs2)cc1NC(=O)c1ccc(CN2CCC3(CCCN3)CC2)cc1 , value?
5.80

###

# method: Half life in rat plasma
# Format: ADME, organism-based
measured property: half-life (h)
Entry rule: numbers only, all in h.

Recorded half-life of Nc1ccc(-c2ccccc2)cc1NC(=O)c1ccc(CN2CCC3(CCCN3)CC2)cc1 , please.
8

###

# tested on: UniProtKB O15379
# Sequence (O15379 whole entry): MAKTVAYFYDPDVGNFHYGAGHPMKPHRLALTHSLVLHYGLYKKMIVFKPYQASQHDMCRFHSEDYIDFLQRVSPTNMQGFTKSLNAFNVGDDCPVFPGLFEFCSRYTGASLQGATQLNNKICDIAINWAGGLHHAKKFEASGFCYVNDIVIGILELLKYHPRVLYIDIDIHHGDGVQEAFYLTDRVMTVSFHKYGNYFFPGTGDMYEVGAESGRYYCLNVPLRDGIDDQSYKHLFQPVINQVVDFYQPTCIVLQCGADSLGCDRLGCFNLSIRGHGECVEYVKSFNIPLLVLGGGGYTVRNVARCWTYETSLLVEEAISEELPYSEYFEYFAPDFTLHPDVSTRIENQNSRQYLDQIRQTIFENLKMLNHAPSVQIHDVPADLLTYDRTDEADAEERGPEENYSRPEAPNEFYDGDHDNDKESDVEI
# method: Inhibition of C-terminal FLAG-tagged human HDAC3 overexpressed in mammalian cells by plate reader method
pIC50: −log10 of the molar value.
Mark criterion met for reported pIC50 of 5 or greater; mark criterion not met for anything smaller.

Would you say Nc1ccc(-c2ccc(F)cc2)cc1NC(=O)c1ccc(C(=O)N2CCC3(CCCN3)CC2)cc1 shows pIC50 at minimum 5?
criterion met

Confirm if pIC50 reported for the compound Nc1ccc(-c2ccccc2F)cc1NC(=O)c1ccc(C(=O)N2CCC3(CCCN3)CC2)cc1 is 5 or above.
criterion not met

Is pIC50 at least 5? Consider Nc1ccc(-c2ccc(F)cc2)cc1NC(=O)c1ccc(CN2CCC3(CCNC3)CC2)cc1
criterion met

State whether the measured pIC50 reaches 5, counting equality as reaching it, for Nc1ccc(-c2ccccc2)cc1NC(=O)c1ccc(C(=O)N2CCC3(CCCN3)CC2)cc1
criterion met

Dear colleague, could you confirm whether Nc1ccc(-c2ccccc2F)cc1NC(=O)c1ccc(CN2CCC3(CCCN3)CC2)cc1 has pIC50 at or above 5?
criterion not met

Textbook exercise: given the entry Nc1ccc(-c2cccs2)cc1NC(=O)c1ccc(C(=O)N2CCC3(CCCN3)CC2)cc1 , state whether its pIC50 is greater than or equal to 5.
criterion met

Reported pIC50 reaches at least 5 for CN(Cc1ccc(C(=O)Nc2cc(-c3ccccc3)ccc2N)cc1)c1ccncc1 ?
criterion met

Answer whether pIC50 of Nc1ccc(-c2ccccc2)cc1NC(=O)c1ccc(CNc2ccncc2)cc1 is greater than or equal to 5.
criterion met

Assess whether reported pIC50 for Nc1ccc(-c2ccccc2)cc1NC(=O)c1ccc(CN2CCC3(CCNC3)CC2)cc1 sits at 5 or higher.
criterion met

I'd appreciate it if you could say whether Nc1ccc(-c2ccccc2)cc1NC(=O)c1ccc(CN2CCC3(CCCN3)CC2)cc1 has pIC50 at least equal to 5.
criterion not met

Please indicate if the recorded pIC50 for Nc1ccc(-c2cccc(F)c2)cc1NC(=O)c1ccc(CN2CCC3(CCCN3)CC2)cc1 meets or exceeds 5.
criterion met

These measurements were taken from ChEMBL document CHEMBL1136848.
